- Assay System: purified recombinant human Aggrecanase-1 (rAgg1) (Homo sapiens, UniProt O75173)
- Sequence (O75173 213-837): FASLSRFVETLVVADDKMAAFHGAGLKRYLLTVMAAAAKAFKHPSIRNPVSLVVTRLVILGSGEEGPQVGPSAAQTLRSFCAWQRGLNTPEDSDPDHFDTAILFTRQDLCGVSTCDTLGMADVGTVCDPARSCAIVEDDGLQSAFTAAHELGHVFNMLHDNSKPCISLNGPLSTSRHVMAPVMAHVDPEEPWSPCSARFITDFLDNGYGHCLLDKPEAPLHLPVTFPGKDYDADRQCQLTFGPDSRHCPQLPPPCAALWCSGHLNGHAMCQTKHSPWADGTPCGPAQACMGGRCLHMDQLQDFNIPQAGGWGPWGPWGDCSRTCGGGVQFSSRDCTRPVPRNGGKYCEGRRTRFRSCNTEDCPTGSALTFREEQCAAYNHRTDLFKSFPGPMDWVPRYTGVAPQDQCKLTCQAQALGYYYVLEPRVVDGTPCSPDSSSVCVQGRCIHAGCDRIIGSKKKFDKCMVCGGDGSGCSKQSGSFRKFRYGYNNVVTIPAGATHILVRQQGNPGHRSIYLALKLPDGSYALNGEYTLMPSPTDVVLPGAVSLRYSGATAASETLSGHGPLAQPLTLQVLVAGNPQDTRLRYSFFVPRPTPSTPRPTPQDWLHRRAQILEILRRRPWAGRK
- Assay Summary: In vitro fluorescence screen for Aggrecanase-1 inhibitors
- Type: biochemical
- Experimental Setup: Table 1; read-out: Agg1 IC50
Endpoint Label: IC50 (nM)
One number for each entry, in nM.

Please give IC50, item by item, for the list that follows.
1. O=C(O)CC[C@H](NC(=O)c1ccc(-c2ccccc2)cc1)C(=O)NCCc1ccccc1Cl
2. CCCCCCNC(=O)[C@H](CCC(=O)O)NC(=O)c1ccc(Oc2ccccc2)cc1
3. COc1ccc(-c2ccc(CCNC(=O)[C@H](CCC(=O)O)NC(=O)c3ccc(-c4ccccc4)cc3)cc2)cc1 [Example 10B]
4. COc1ccc(CNC(=O)[C@H](CCC(=O)O)NC(=O)c2ccc(-c3ccccc3)cc2)c(OC)c1
5. O=C(O)CC[C@H](NC(=O)c1ccc(-c2ccccc2)cc1)C(=O)NCc1ccc(Cl)c(Cl)c1
6. O=Cc1ccc(-c2cccc(CCNC(=O)[C@H](CCC(=O)O)NC(=O)c3ccc(-c4ccccc4)cc3)c2)cc1 [Example 10J]
7. O=C(O)CC[C@H](NC(=O)c1ccc(-c2ccccc2)cc1)C(=O)NCc1cccc(-c2cccs2)c1 [Example 10N]

[100, 9600, 150, 50, 74, 260, 19]

Please give IC50, item by item, for the list that follows.
1. O=C(O)CC[C@H](NC(=O)c1ccc(-c2ccccc2)cc1)C(=O)NCc1cccc(F)c1
2. Cc1c(C(=O)Nc2ccc(-c3ccc(C(=O)N[C@@H](CCC(=O)O)C(=O)O)cc3)cc2)oc2ccccc12
3. O=C(O)CC[C@H](NC(=O)c1ccc(-c2ccccc2)cc1)C(=O)NCc1ccccc1F
4. CN(C)c1cccc(CNC(=O)[C@H](CCC(=O)O)NC(=O)c2ccc(-c3ccccc3)cc2)c1
5. CC(C)(C)c1ccc(CNC(=O)[C@H](CCC(=O)O)NC(=O)c2ccc(-c3ccccc3)cc2)cc1
6. NC(=O)[C@H](CCC(=O)O)NC(=O)c1ccc(Nc2ncccn2)cc1
7. O=C(O)CC[C@H](NC(=O)c1ccc(-c2ccccn2)cc1)C(=O)NCc1ccccc1 [Example 12E]

1: 300; 2: 400; 3: 210; 4: 100; 5: 180; 6: 12700; 7: 1800

Please give IC50, item by item, for the list that follows.
1. O=C(O)CC[C@H](NC(=O)c1ccc(-c2ccccc2)cc1)C(=O)NCCCCCO
2. CC(C)(Cc1ccccc1)NC(=O)[C@H](CCC(=O)O)NC(=O)c1ccc2c(c1)Cc1ccccc1-2

[36, 45]

Please give IC50, item by item, for the list that follows.
1. O=Cc1ccc(-c2ccc(CCNC(=O)[C@H](CCC(=O)O)NC(=O)c3ccc(-c4ccccc4)cc3)cc2)cc1
2. O=C(O)CC[C@H](NC(=O)c1ccc(-c2ccccc2)cc1)C(=O)NCCc1ccc(-c2ccc(C(F)(F)F)cc2)cc1 [Example 10A]
3. Cc1cccc(CNC(=O)[C@H](CCC(=O)O)NC(=O)c2ccc(-c3ccccc3)cc2)c1
4. O=C(O)CC[C@H](NC(=O)c1ccc(-c2ccccc2)cc1)C(=O)NCCCCc1ccccc1

1: 200; 2: 840; 3: 75; 4: 44

Please give IC50, item by item, for the list that follows.
1. COc1cc(CNC(=O)[C@H](CCC(=O)O)NC(=O)c2ccc3c(c2)C(=O)c2ccccc2-3)cc(OC)c1OC
2. COc1ccccc1CNC(=O)[C@H](CCC(=O)O)NC(=O)c1ccc(-c2ccccc2)cc1
3. O=C(O)CC[C@H](NC(=O)c1ccc(-c2ccccc2)cc1)C(=O)NCCc1ccc(-c2ccccc2)cc1 [Example 10C]

1. 47
2. 80
3. 240

Please give IC50, item by item, for the list that follows.
1. Cc1ccc(CNC(=O)[C@H](CCC(=O)O)NC(=O)c2ccc(-c3ccccc3)cc2)cc1C
2. COc1ccc(-c2cccc(CCNC(=O)[C@H](CCC(=O)O)NC(=O)c3ccc(-c4ccccc4)cc3)c2)cc1 [Example 10L]
3. COc1ccc(-c2ccccc2)cc1NC(=O)[C@H](CCC(=O)O)NC(=O)c1ccc(-c2ccccc2)cc1

[94, 130, 900]
